protocol text: Human HepG2 cell viability assay in 384 well format
Type: toxicity, cell-based
Parameters: dose 125 nL, time 70.5 hour; concentration not given beside the values
applied conditions: HepG2 cells, read-out: Inhibition
I'd appreciate it if you could supply cytotoxicity at 70.5 h values for the items below.
Numbers only; they are read as %.

Given CNS(=O)(=O)Cc1ccc(CNC(=O)Nc2cccnc2)cc1 , state its recorded cytotoxicity at 70.5 h.
13.3

One more compound: CN(C)c1ccc(C(=O)N2CCCC2c2cnn(C)c2)cn1 (stereo unspecified)
-2.8

One more compound: Cc1cc(N)nc(SC2CCN(c3ccccc3F)C2=O)n1 (stereo unspecified)
19

One more compound: O=C(c1ccco1)N1C[C@H]2CCCN(Cc3nccs3)[C@H]2C1
-11.3

One more compound: O=C(NCc1cc(=O)n2c(n1)CN(CC1CCOC1)CCC2)C1CC1 (stereo unspecified)
-4.46

One more compound: Cc1nc(C2CCN(C(=O)c3cscn3)CC2)c2sccn12
-1.33

One more compound: CN(CCc1cccc2ccccc12)Cc1nc(N)nc(N(C)C)n1
28.3

One more compound: CCCN1CCC(N2CCN(c3cc(C)nc(C)c3)CC2)CC1
5.6

One more compound: CN1CCCC1c1cncc(C(=O)NCCN2CCCC2)n1 (stereo unspecified)
-14.2

One more compound: Cc1cc(CN2C[C@@H]3COC[C@H](C(=O)N4CCCCO4)[C@@H]3C2)oc1C
-11

One more compound: Cc1ccsc1CN1CCCC(CNC(=O)c2ccc(N)nc2)C1 (stereo unspecified)
-8.08

One more compound: CC(c1ccc(F)c(F)c1)N(C)CCS(=O)(=O)CCC(N)=O (stereo unspecified)
-9.48

One more compound: C[C@]1(O)CCN(Cc2ncccc2F)C[C@@H]1Oc1cccc(F)c1
-3.05

One more compound: Cc1cc(CNC2(c3ccccc3F)CC2)no1
-4.02

One more compound: CC(=O)N1CCN(CCNS(=O)(=O)c2ccc(F)c(F)c2)CC1
2.27

One more compound: CC(C)N1C[C@H](NC(=O)c2coc(COc3cccc(F)c3)n2)[C@@H](O)C1
2.02

One more compound: CSc1ccc(-c2noc(CN(CC(C)C)CC(C)C)n2)cc1
-12.7

One more compound: CCN(CC)CCn1cnc(-c2ccccc2)c1-c1ncc[nH]1
-10.3

One more compound: COCc1ccc(C(=O)N2CCN(CCS(C)(=O)=O)CC2)cc1
-10.7

One more compound: COc1cccc(CC(=O)N2CCc3nc(C(N)=O)sc3CC2)c1
-8.31

One more compound: CCOC1CCN(C(=O)CN(C)c2cnccn2)CC1
-4.29

One more compound: COc1cc(Cl)c(C)cc1NC(=O)CNc1ccn(CC(N)=O)n1
-7.27

One more compound: CC(C)(C)NC(=O)CCn1ncc2c(Cl)cccc21
-5.97

One more compound: CC(=O)N1C[C@H](NC(=O)c2cscn2)[C@@H]2OCCC[C@@H]21
-16.1

One more compound: CC(C)(C)c1n[nH]c(C2CN(C(=O)CCc3ccco3)CCO2)n1 (stereo unspecified)
1.28

One more compound: C[C@H]1C[C@H]2CN(S(=O)(=O)c3ccc(F)cc3)CC[C@@H]2O1
-3.04

One more compound: CN(CCn1cccn1)S(=O)(=O)c1ccc(C#N)cc1
-8.98

One more compound: Cc1cc(C(F)(F)F)nn1CC(C)C(=O)Nc1ccncc1 (stereo unspecified)
1.22

One more compound: CCNC(=O)NCc1nn(CCN2CCCC2)c(=O)c2ccccc12
-5.36

One more compound: Cc1c(CN2C[C@@H](O)[C@H](Oc3cccc(F)c3)C2)cnn1C
-10.7

One more compound: O=C1N(Cc2cccc(F)c2F)CCCC1(O)CN1CCCOCC1 (stereo unspecified)
-1.1

One more compound: CCc1nc(C)c([C@H]2CN(C)C[C@@H]2C(=O)Nc2ccccc2F)[nH]1
-13.9

One more compound: CCOC(=O)C1CCN(C(=O)CN2CCCC2c2ccsc2)CC1 (stereo unspecified)
-3.85

One more compound: Cc1cccc(-c2noc([C@@H]3C[C@@H](O)CN3C)n2)c1
3.3

One more compound: CCSc1cc(C(=O)NCCC(=O)N(C)C)ccn1
-103

One more compound: CC(C)NC(=O)CN1CCCNCC1
-0.253

One more compound: Cc1ccc(S(=O)(=O)NCCc2cccnc2)cc1C
-3.85

One more compound: Cc1ncc(CNCC(C)O)c2cc(C(=O)c3ccc(Br)cc3)oc12 (stereo unspecified)
-16.1

One more compound: Cc1ncsc1C(=O)NC1CCN(Cc2ccc(C(F)(F)F)cc2)CC1
26.5

One more compound: CC(C)Nc1nc(N2CCOCC2)nc2c1CN(Cc1ccoc1)CC2
-12.3

One more compound: Cc1cccc(C)c1C(=O)N1C[C@@H](CN2CCOCC2)[C@@H](CO)C1
-7.08

One more compound: CC(CO)Nc1ccc(-c2nc(Cc3ccc(F)cc3)no2)cn1 (stereo unspecified)
-2.07

One more compound: COCc1noc(C2(c3ccc(OC)cc3)CCOCC2)n1
-9.29

One more compound: CCCn1ncc(C(=O)N2CCN(C3CCSCC3)CC2)c1C
2.68

One more compound: CC(C)n1nc2c(cc1=O)CN(Cc1nnc(C3CC3)o1)CC2
-3.62

One more compound: Cc1cc(C)c(CNC(=O)NCc2nnc3n2CCCCC3)c(=O)[nH]1
-5.09
